Source: the supplement of paper PMC7125110

The entries below are paired with their reported self-cleavage kobs at 40 uM GlcN6P.
B1: glmS ribozyme (parent)
chain: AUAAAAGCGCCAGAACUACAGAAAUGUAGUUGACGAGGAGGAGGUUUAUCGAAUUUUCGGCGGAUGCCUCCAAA

- Variants of: B1
- assay_text: self-cleavage kobs at 40 uM GlcN6P; higher = faster cleavage; RNA array
- experimental_context: with glucosamine-6-phosphate
Fewer inactive variants are shown than the library holds.
recorded_endpoint: self-cleavage kobs at 40 uM GlcN6P

variant_string	recorded_endpoint	result
G44A A64C	self-cleavage kobs at 40 uM GlcN6P	< 1e-05 s⁻¹
G35A G44U U49A	self-cleavage kobs at 40 uM GlcN6P	< 1e-05 s⁻¹
A48G G59U	self-cleavage kobs at 40 uM GlcN6P	< 1e-05 s⁻¹
A42C G59C C67G	self-cleavage kobs at 40 uM GlcN6P	< 1e-05 s⁻¹
U30G G43C	self-cleavage kobs at 40 uM GlcN6P	< 1e-05 s⁻¹
A6C C61U	self-cleavage kobs at 40 uM GlcN6P	< 1e-05 s⁻¹
U57C G62U C70A	self-cleavage kobs at 40 uM GlcN6P	< 1e-05 s⁻¹
A48U C68A	self-cleavage kobs at 40 uM GlcN6P	< 1e-05 s⁻¹
G37U G38A A42C	self-cleavage kobs at 40 uM GlcN6P	< 1e-05 s⁻¹
G38C A39C G40C C50A A53G U65C	self-cleavage kobs at 40 uM GlcN6P	< 1e-05 s⁻¹
A36G A39G	self-cleavage kobs at 40 uM GlcN6P	< 1e-05 s⁻¹
A12C U49C U56G C58G	self-cleavage kobs at 40 uM GlcN6P	< 1e-05 s⁻¹
G35C U69A C70G	self-cleavage kobs at 40 uM GlcN6P	< 1e-05 s⁻¹
U55G C71G	self-cleavage kobs at 40 uM GlcN6P	7.4e-05 s⁻¹
G35A U45A C71A	self-cleavage kobs at 40 uM GlcN6P	< 1e-05 s⁻¹
G43C U46C	self-cleavage kobs at 40 uM GlcN6P	< 1e-05 s⁻¹
A36C G63A	self-cleavage kobs at 40 uM GlcN6P	< 1e-05 s⁻¹
A14G G29C U56A	self-cleavage kobs at 40 uM GlcN6P	3.76e-05 s⁻¹
A42U G43U G60U	self-cleavage kobs at 40 uM GlcN6P	< 1e-05 s⁻¹
G7C C11U G40U C71A	self-cleavage kobs at 40 uM GlcN6P	< 1e-05 s⁻¹
G40U A52C	self-cleavage kobs at 40 uM GlcN6P	< 1e-05 s⁻¹
G7U G35C U55G A64C	self-cleavage kobs at 40 uM GlcN6P	< 1e-05 s⁻¹
A42G U56A G60U	self-cleavage kobs at 40 uM GlcN6P	< 1e-05 s⁻¹
C16A G35C	self-cleavage kobs at 40 uM GlcN6P	< 1e-05 s⁻¹
A33U U47A U54C	self-cleavage kobs at 40 uM GlcN6P	< 1e-05 s⁻¹
G9C G43U G44U C58A C71A	self-cleavage kobs at 40 uM GlcN6P	< 1e-05 s⁻¹
C10U U57A	self-cleavage kobs at 40 uM GlcN6P	< 1e-05 s⁻¹
A48U G59A G66U	self-cleavage kobs at 40 uM GlcN6P	< 1e-05 s⁻¹
A36U G51A	self-cleavage kobs at 40 uM GlcN6P	< 1e-05 s⁻¹
C8A A36C	self-cleavage kobs at 40 uM GlcN6P	< 1e-05 s⁻¹
U45A A52G	self-cleavage kobs at 40 uM GlcN6P	5.17e-05 s⁻¹
C10U A14C	self-cleavage kobs at 40 uM GlcN6P	< 1e-05 s⁻¹
A14G C16G	self-cleavage kobs at 40 uM GlcN6P	0.000569 s⁻¹
U54G C67A	self-cleavage kobs at 40 uM GlcN6P	0.000326 s⁻¹
A33G G40U G59U	self-cleavage kobs at 40 uM GlcN6P	< 1e-05 s⁻¹
G38U G66C	self-cleavage kobs at 40 uM GlcN6P	< 1e-05 s⁻¹
A15C A48G U69G	self-cleavage kobs at 40 uM GlcN6P	< 1e-05 s⁻¹
G32U U49C	self-cleavage kobs at 40 uM GlcN6P	< 1e-05 s⁻¹
U46G C68G C71G	self-cleavage kobs at 40 uM GlcN6P	9.54e-05 s⁻¹
A6U A39C U47C A64U	self-cleavage kobs at 40 uM GlcN6P	< 1e-05 s⁻¹
C11G C58A A64G	self-cleavage kobs at 40 uM GlcN6P	< 1e-05 s⁻¹
G13C C34A	self-cleavage kobs at 40 uM GlcN6P	< 1e-05 s⁻¹
C16U G29A	self-cleavage kobs at 40 uM GlcN6P	0.00117 s⁻¹
C8G U30C	self-cleavage kobs at 40 uM GlcN6P	< 1e-05 s⁻¹
G38U G43C A64U	self-cleavage kobs at 40 uM GlcN6P	< 1e-05 s⁻¹
G41U C50A	self-cleavage kobs at 40 uM GlcN6P	< 1e-05 s⁻¹
U46A G60C	self-cleavage kobs at 40 uM GlcN6P	< 1e-05 s⁻¹
C8A G37A	self-cleavage kobs at 40 uM GlcN6P	< 1e-05 s⁻¹
C11U G13C C16A U49A	self-cleavage kobs at 40 uM GlcN6P	< 1e-05 s⁻¹
C50G C58G G66U C68A	self-cleavage kobs at 40 uM GlcN6P	6.12e-05 s⁻¹
C19A G43U	self-cleavage kobs at 40 uM GlcN6P	< 1e-05 s⁻¹
C10U	self-cleavage kobs at 40 uM GlcN6P	< 1e-05 s⁻¹
G44U U45C G63A	self-cleavage kobs at 40 uM GlcN6P	< 1e-05 s⁻¹
U45G C67A	self-cleavage kobs at 40 uM GlcN6P	0.000114 s⁻¹
G9A C34G U46C C61U G62U	self-cleavage kobs at 40 uM GlcN6P	< 1e-05 s⁻¹
G9U C58A	self-cleavage kobs at 40 uM GlcN6P	< 1e-05 s⁻¹
C8U C58U C67U U69C	self-cleavage kobs at 40 uM GlcN6P	0.00084 s⁻¹
C11G A48U G63C	self-cleavage kobs at 40 uM GlcN6P	< 1e-05 s⁻¹
A48G G60C C61G	self-cleavage kobs at 40 uM GlcN6P	< 1e-05 s⁻¹
A15G G44U G51C A52G U56G	self-cleavage kobs at 40 uM GlcN6P	< 1e-05 s⁻¹
C16U U30C	self-cleavage kobs at 40 uM GlcN6P	< 1e-05 s⁻¹
A14G G32C U49A	self-cleavage kobs at 40 uM GlcN6P	< 1e-05 s⁻¹
G37U G40C G44U	self-cleavage kobs at 40 uM GlcN6P	< 1e-05 s⁻¹
A6C G59A	self-cleavage kobs at 40 uM GlcN6P	< 1e-05 s⁻¹
